test system: velvetleaf (Abutilon theophrasti, ABUTH); assay: Post-emerge greenhouse herbicide activity screening, phytotoxicity rating; assay type: in vivo; conditions: 125 g ai/ha, 14 days after application
Can you tell me ABUTH phytotoxicity rating (0-100 scale) for the items I'm about to list?
Numbers only.

Past entries and their recorded results:
COc1ccccc1Oc1cc(-n2c(=O)cc(C(F)(F)F)n(C)c2=S)c(F)cc1C#N [Compound 1-71] :: 100
Cn1c(C(F)(F)F)cc(=O)n(-c2cc(Oc3ccccc3)c(Cl)cc2F)c1=S [Compound 1-47] :: 100
Fc1cc(Cl)c(Oc2ncccn2)cc1-c1nn2c(c1Br)CCCC2 [Compound 6-2] :: 100
Cn1c(C(F)(F)F)cc(=O)n(-c2cc(Oc3ncccn3)c(Cl)cc2F)c1=S [Compound 1-1] :: 100
Cn1nc(-c2cc(Oc3ncccn3)c(Cl)cc2F)c(=O)n(C)c1=S [Compound 4-1] :: 99

Hi, could you look up ABUTH phytotoxicity rating (0-100 scale) for each item in my list?
1. Cn1c(C(F)(F)F)cc(=O)n(-c2cc(Oc3ccccc3N)c(Cl)cc2F)c1=S [Compound 1-48]
2. Cn1c(C(F)(F)F)cc(=O)n(-c2cc(Oc3ccccc3[N+](=O)[O-])c(Cl)cc2F)c1=S [Compound 1-49]
3. COc1ccc(Oc2cc(-n3c(=O)cc(C(F)(F)F)n(C)c3=S)c(F)cc2C#N)cc1 [Compound 1-72]
4. Cn1c(C(F)(F)F)cc(=O)n(-c2cc(Oc3ncccc3C(F)(F)F)c(Cl)cc2F)c1=S [Compound 1-15]

[85, 98, 80, 95]

Hi, could you look up ABUTH phytotoxicity rating (0-100 scale) for each item in my list?
1. Cn1c(C(F)(F)F)cc(=O)n(-c2cc(Oc3ccccc3C#N)c(Cl)cc2F)c1=S [Compound 1-66]
2. Cn1nc(-c2cc(Oc3ncccn3)c(Cl)cc2F)c(Cl)c1[S+]([O-])C(F)F (stereo not drawn) [Compound 5-1]
3. Cn1c(C(F)(F)F)cc(=O)n(-c2cc(Oc3ccccc3)c(C#N)cc2F)c1=S [Compound 1-69]

[90, 100, 100]

---

tested on: upland rice (Oryza sp., var.Tebonnet, RICE); assay: Pre-emerge greenhouse screening, crop safety (phytotoxicity rating); type: in vivo; details: 250 g ai/ha, 14 days after application
ASSAY_METRIC: RICE crop damage, phytotoxicity rating (0-100 scale)
Answers are plain numbers.

Past entries and their recorded results:
Cn1nc(-c2cc(Oc3ncccn3)c(Cl)cc2F)c(=O)n(C)c1=S [Compound 4-1] :: 60
Cn1c(=S)n(C)c(=O)n(-c2cc(Oc3ccccc3N)c(Cl)cc2F)c1=O [Compound 2-18] :: 0
Cn1c(C(F)(F)F)cc(=O)n(-c2cc(Oc3ncccn3)c(Cl)cc2F)c1=S [Compound 1-1] :: 100
Cn1c(C(F)(F)F)cc(=O)n(-c2cc(Oc3ccccc3C#N)c(Cl)cc2F)c1=S [Compound 1-66] :: 45
Cn1c(C(F)(F)F)cc(=O)n(-c2cc(Oc3ccccc3O)c(C#N)cc2F)c1=S [Compound 1-70] :: 55
Cn1c(C(F)(F)F)cc(=O)n(-c2cc(Oc3ncccc3C(F)(F)F)c(Cl)cc2F)c1=S [Compound 1-15] :: 0
N#Cc1c(-c2cc(Oc3ncccn3)c(Cl)cc2F)nn2c1CCCC2 [Compound 6-17] :: 35
COc1ccccc1Oc1cc(-n2c(=O)cc(C(F)(F)F)n(C)c2=S)c(F)cc1C#N [Compound 1-71] :: 65

Hi, could you look up RICE crop damage, phytotoxicity rating (0-100 scale) for each item in my list?
1. O=[N+]([O-])c1ccccc1Oc1cc(-c2nn3c(c2Cl)CCCC3)c(F)cc1Cl [Compound 6-19]
2. COc1ccc(Oc2cc(-n3c(=O)cc(C(F)(F)F)n(C)c3=S)c(F)cc2C#N)cc1 [Compound 1-72]
3. Cn1c(=S)n(C)c(=O)n(-c2cc(Oc3ccccc3)c(Cl)cc2F)c1=O [Compound 2-16]
4. Cn1nc(-c2cc(Oc3ncccn3)c(Cl)cc2F)c(Cl)c1[S+]([O-])C(F)F (stereo not shown) [Compound 5-1]
5. Cn1c(C(F)(F)F)cc(=O)n(-c2cc(Oc3ccccc3N)c(Cl)cc2F)c1=S [Compound 1-48]

0
0
0
80
8

---

Can you tell me RICE crop damage, phytotoxicity rating (0-100 scale) for the items I'm about to list?
system: upland rice (Oryza sp., var.Tebonnet, RICE); assay: Post-emerge greenhouse screening, crop safety (phytotoxicity rating); assay type: in vivo; conditions: 250 g ai/ha, 14 days after application

Cn1c(C(F)(F)F)cc(=O)n(-c2cc(Oc3ccccc3[N+](=O)[O-])c(Cl)cc2F)c1=S [Compound 1-49] :: 25
Cn1c(C(F)(F)F)cc(=O)n(-c2cc(Oc3ccccc3C#N)c(Cl)cc2F)c1=S [Compound 1-66] :: 0
Fc1cc(Cl)c(Oc2ncccn2)cc1-c1nn2c(c1Cl)CCCC2 [Compound 6-1] :: 95
Cn1nc(-c2cc(Oc3ncccn3)c(Cl)cc2F)c(=O)n(C)c1=S [Compound 4-1] :: 15
N#Cc1c(-c2cc(Oc3ncccn3)c(Cl)cc2F)nn2c1CCCC2 [Compound 6-17] :: 80
Fc1cc(Cl)c(Oc2ncccn2)cc1-c1nn2c(c1Br)CCCC2 [Compound 6-2] :: 98
Cn1c(C(F)(F)F)cc(=O)n(-c2cc(Oc3ncccc3C(F)(F)F)c(Cl)cc2F)c1=S [Compound 1-15] :: 0
Cn1c(C(F)(F)F)cc(=O)n(-c2cc(Oc3ccccc3)c(C#N)cc2F)c1=S [Compound 1-69] :: 0

Next compound, RICE crop damage, phytotoxicity rating (0-100 scale) to be filled in.
Need RICE crop damage, phytotoxicity rating (0-100 scale), item O=[N+]([O-])c1ccccc1Oc1cc(-c2nn3c(c2Cl)CCCC3)c(F)cc1Cl [Compound 6-19] 35

---

System: common ragweed (Ambrosia artemisiifolia L., AMBEL)
Test: Post-emerge greenhouse herbicide activity screening, phytotoxicity rating
Type: in vivo
Conditions: 62.5 g ai/ha
Procedure: A standard greenhouse herbicide activity screening system was used to evaluate the herbicidal efficacy and crop safety of these test compounds. […] At 14 days after application of the test materials, phytotoxicity ratings were recorded. […]
ASSAY_METRIC: AMBEL phytotoxicity rating (0-100 scale)
One number for each entry.

Cn1c(C(F)(F)F)cc(=O)n(-c2cc(Oc3ccccc3N)c(Cl)cc2F)c1=S :: 50

Hi, could you look up AMBEL phytotoxicity rating (0-100 scale) for each item in my list?
1. Cn1c(=S)n(C)c(=O)n(-c2cc(Oc3ncccn3)c(Cl)cc2F)c1=O
2. Fc1cc(Cl)c(Oc2ncccn2)cc1-c1nn2c(c1Br)CCCC2
3. Cn1c(C(F)(F)F)cc(=O)n(-c2cc(Oc3ncccn3)c(Cl)cc2F)c1=S
4. Cn1c(=S)n(C)c(=O)n(-c2cc(Oc3ccccc3[N+](=O)[O-])c(Cl)cc2F)c1=O
5. Cn1nc(-c2cc(Oc3ncccn3)c(Cl)cc2F)c(Cl)c1[S+]([O-])C(F)F (centres unmarked)
6. Cn1c(C(F)(F)F)cc(=O)n(-c2cc(Oc3ccccc3[N+](=O)[O-])c(Cl)cc2F)c1=S
7. Cn1c(C(F)(F)F)cc(=O)n(-c2cc(Oc3ccccc3)c(C#N)cc2F)c1=S

1: 50; 2: 85; 3: 98; 4: 50; 5: 60; 6: 65; 7: 70

---

tested on: upland rice (Oryza sp., var.Tebonnet, RICE); assay: Pre-emerge greenhouse screening, crop safety (phytotoxicity rating); format: in vivo; details: 125 g ai/ha, 14 days after application
ASSAY_METRIC: RICE crop damage, phytotoxicity rating (0-100 scale)
One number for each entry.

Cn1c(C(F)(F)F)cc(=O)n(-c2cc(Oc3ccccc3O)c(C#N)cc2F)c1=S :: 50

Hi, could you look up RICE crop damage, phytotoxicity rating (0-100 scale) for each item in my list?
1. Cn1c(C(F)(F)F)cc(=O)n(-c2cc(Oc3ccccc3)c(C#N)cc2F)c1=S
2. Cn1c(C(F)(F)F)cc(=O)n(-c2cc(Oc3ccccc3)c(Cl)cc2F)c1=S
3. Cn1c(C(F)(F)F)cc(=O)n(-c2cc(Oc3ccccc3N)c(Cl)cc2F)c1=S
4. COc1ccc(Oc2cc(-n3c(=O)cc(C(F)(F)F)n(C)c3=S)c(F)cc2C#N)cc1
5. Cn1c(=S)n(C)c(=O)n(-c2cc(Oc3ccccc3N)c(Cl)cc2F)c1=O
6. Cn1c(=S)n(C)c(=O)n(-c2cc(Oc3ccccc3[N+](=O)[O-])c(Cl)cc2F)c1=O

50
15
0
0
0
0

Hi, could you look up RICE crop damage, phytotoxicity rating (0-100 scale) for each item in my list?
1. Cn1c(C(F)(F)F)cc(=O)n(-c2cc(Oc3ccccc3[N+](=O)[O-])c(Cl)cc2F)c1=S
2. Cn1c(C(F)(F)F)cc(=O)n(-c2cc(Oc3ncccc3C(F)(F)F)c(Cl)cc2F)c1=S
3. Cn1c(=S)n(C)c(=O)n(-c2cc(Oc3ncccn3)c(Cl)cc2F)c1=O
4. Cn1c(C(F)(F)F)cc(=O)n(-c2cc(Oc3ncccn3)c(Cl)cc2F)c1=S

[30, 0, 99, 100]

Hi, could you look up RICE crop damage, phytotoxicity rating (0-100 scale) for each item in my list?
1. N#Cc1c(-c2cc(Oc3ncccn3)c(Cl)cc2F)nn2c1CCCC2
2. Cn1c(C(F)(F)F)cc(=O)n(-c2cc(Oc3ccccc3C#N)c(Cl)cc2F)c1=S
3. Fc1cc(Cl)c(Oc2ncccn2)cc1-c1nn2c(c1Br)CCCC2
4. Cn1nc(-c2cc(Oc3ncccn3)c(Cl)cc2F)c(=O)n(C)c1=S
5. Cn1nc(-c2cc(Oc3ncccn3)c(Cl)cc2F)c(Cl)c1[S+]([O-])C(F)F (centres unmarked)
6. Fc1cc(Cl)c(Oc2ncccn2)cc1-c1nn2c(c1Cl)CCCC2

1. 25
2. 40
3. 60
4. 50
5. 55
6. 85
